List of pKi values.
TARGET SYSTEM: T1, somatostatin receptor type 2 (SSTR2) (UniProt P30874 1-369, limits assumed)
T1 construct: also called SSTR protein
T1 sequence (P30874 whole entry): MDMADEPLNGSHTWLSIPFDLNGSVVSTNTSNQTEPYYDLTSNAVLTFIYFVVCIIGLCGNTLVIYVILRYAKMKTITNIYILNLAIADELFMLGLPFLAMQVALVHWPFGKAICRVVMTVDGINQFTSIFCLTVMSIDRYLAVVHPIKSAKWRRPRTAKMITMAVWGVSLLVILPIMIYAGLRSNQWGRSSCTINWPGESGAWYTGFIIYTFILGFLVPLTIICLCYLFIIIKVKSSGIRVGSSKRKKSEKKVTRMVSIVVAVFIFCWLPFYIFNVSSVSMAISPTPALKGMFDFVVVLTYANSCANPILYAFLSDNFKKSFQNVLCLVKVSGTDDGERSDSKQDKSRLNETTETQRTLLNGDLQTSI
ASSAY OVERVIEW: radioligand competition; Ki bin per legend
pKi: −log10 of the molar value. Square brackets hold non-standard residues; d marks the D form. dTrp(βS-Me) = C[C@@H](c1c[nH]c2ccccc12)[C@@H](N)C(=O)O; Ala(piperazin-1-yl) = N[C@@H](CN1CCNCC1)C(=O)O; NMeK = CN[C@@H](CCCCN)C(=O)O

Recorded pKi, per entry:
BINDER: XYWKVF (cyclo[NMe-Hcy(COCH2-Dah-DOTA-Lu);Tyr;D-Trp;Lys;Val;Phe]) [RB-0002676]
pKi: > 9.00
--
BINDER: cyclo([NMeK]Y[dTrp(βS-Me)][Ala(piperazin-1-yl)]TF) (not fully specified (residue 1); printed as cyclo[NMe-Lys(DOTA-Lu),Tyr,(S-βMe)D-Trp,PipzaA,Thr,Phe]; also: Lu chelated in DOTA) [RB-0006176]
pKi: > 9.00

// query // pKi lookup, key: XYWKTF (cyclo[NMe-Hcy(COCH2-Dah-DOTA-Lu);Tyr;D-Trp;NMe-Lys;Thr;Phe]) [RB-0003453]
// result > 9.00
